Please provide measured log10 half-life at 10 μM for the entries that follow.
# protocol_summary: Microsomal stability assay, human liver microsomes
# Format: in vitro ADME
# run_parameters: human, liver microsomes, pH 7.4; 10 μM test compound, 0.5 mg/mL protein, 37° C.; read-out: Half-life (min) (HLM)
# log10 transformed; quantity=half-life at 10 μM; unit=min

According to the records, this compound COc1ccc(-n2nc3c4ccc(OC)cc4[nH]cc-3c2=O)cc1 displays log10 half-life at 10 μM of 2.33

Recorded result, COc1ccc(-n2nc3c4ccc(Br)cc4[nH]cc-3c2=O)cc1 , log10 half-life at 10 μM: 2.02

The recorded log10 half-life at 10 μM for entry [2H]C([2H])([2H])Oc1ccc2c3nn(-c4ccc(OC)cc4)c(=O)c-3c[nH]c2c1 equals 3.47

Lab note: measured log10 half-life at 10 μM of COc1cccc(-n2nc3c4cc(Cl)ccc4[nH]cc-3c2=O)c1 was 2.32

log10 half-life at 10 μM in this record for COc1ccc(-n2nc3c4cc(Cl)ccc4[nH]cc-3c2=O)cc1 : 2.13

====

# protocol_summary: Microsomal stability assay, mouse liver microsomes
# Type: in vitro ADME
# run_parameters: 10 μM test compound, 0.5 mg/mL protein, 37° C.
readout_name: Half-life (min) (MLM)
Numeric answer only, unit min assumed.

Lab note: COc1ccc(-n2nc3c4ccc(Br)cc4[nH]cc-3c2=O)cc1 gave Half-life (min) (MLM) of 113.17

Note to self: Half-life (min) (MLM) recorded for COc1ccc(-n2nc3c4cc(Cl)ccc4[nH]cc-3c2=O)cn1 was 265

Briefly, Half-life (min) (MLM) measured for COc1cccc(-n2nc3c4cc(Cl)ccc4[nH]cc-3c2=O)c1 : 89.07

The recorded Half-life (min) (MLM) for [2H]C([2H])([2H])Oc1ccc(-n2nc3c4ccc(Br)cc4[nH]cc-3c2=O)cn1 is 4250

Briefly, Half-life (min) (MLM) measured for [2H]C([2H])([2H])Oc1ccc(-n2nc3c4ccc(OC([2H])([2H])[2H])cc4[nH]cc-3c2=O)cc1 : 846.85

Half-life (min) (MLM) recorded for this compound, COc1ccc(-n2nc3c4ccc(Br)cc4[nH]cc-3c2=O)cn1 , is 680.6

compound [2H]C([2H])([2H])Oc1ccccc1-n1nc2c3cc(Cl)ccc3[nH]cc-2c1=O , Half-life (min) (MLM) observed: 993

Measured Half-life (min) (MLM) of [2H]C([2H])([2H])Oc1ccc(-n2nc3c4cc(Cl)ccc4[nH]cc-3c2=O)cc1 : 263

====

# protocol_summary: Microsomal stability assay, human liver microsomes
# Type: in vitro ADME
# run_parameters: 10 μM test compound, 0.5 mg/mL protein, 37° C.
Please go through the items and note down their Half-life (min) (HLM).
Write the value in min as a bare number.

The value of Half-life (min) (HLM) measured for the compound [2H]C([2H])([2H])Oc1ccc(-n2nc3c4ccc(OC)cc4[nH]cc-3c2=O)cc1 turned out to be 520

Quick note, Half-life (min) (HLM) for [2H]C([2H])([2H])Oc1ccc(-n2nc3c4cc(Cl)ccc4[nH]cc-3c2=O)cc1 landed at 640

# Half-life (min) (HLM) of [2H]C([2H])([2H])Oc1ccc(-n2nc3c4ccc(OC)cc4[nH]cc-3c2=O)cn1 = 592.5

COc1ccc2c3nn(-c4ccc(OC)nc4)c(=O)c-3c[nH]c2c1 has a reported Half-life (min) (HLM) of 794
